The reported measurements were obtained from ChEMBL document CHEMBL1156597.

test: Cytotoxicity against human IGROV-ET cells after 48 hrs by SRB assay; format: functional; details: read-out: LC50 (the source's name)
Could you please report measured log10(CC50) for the items listed next?
Reminder: these figures are log10 of reported CC50, in nM before transformation.

Consider the worked cases shown below.
C/C=C1\NC(=O)[C@H](Cc2ccccc2)NC(=O)[C@@H](C(C)C)NC(=O)[C@@H]([C@H](C)CC)NC(=O)[C@H](NC(=O)[C@H](NC(=O)[C@H](CCCN)NC(=O)[C@H]2CCCN2C(=O)[C@H](NC(=O)[C@H](CCC(N)=O)NC(=O)[C@@H](NC(=O)[C@H](NC(=O)CCCC(C)C)C(C)C)[C@@H](C)O)C(C)C)[C@H](C)CC)[C@H](C)OC(=O)[C@H](C(C)C)NC1=O :: 2.84
C/C=C1\NC(=O)[C@H](Cc2ccccc2)NC(=O)[C@@H](C(C)C)NC(=O)[C@@H]([C@H](C)CC)NC(=O)[C@H](NC(=O)[C@H](NC(=O)[C@H](CCCN)NC(=O)[C@H]2CCCN2C(=O)[C@H](NC(=O)[C@@H](NC(=O)[C@@H](NC(=O)[C@H](NC(=O)CC[C@@H](C)CC)C(C)C)[C@@H](C)OC(=O)C(F)(F)F)C(C)C)C(C)C)[C@H](C)CC)[C@H](C)OC(=O)[C@H](C(C)C)NC1=O :: 2.67
C/C=C1\NC(=O)[C@H](Cc2ccccc2)NC(=O)[C@@H](C(C)C)NC(=O)[C@@H]([C@H](C)CC)NC(=O)[C@H](NC(=O)[C@H](NC(=O)[C@H](CCCN)NC(=O)[C@H]2CCCN2C(=O)[C@H](NC(=O)[C@@H](NC(=O)[C@@H](NC(=O)[C@H](NC(=O)C(F)(F)C(F)(F)C(F)(F)C(F)(F)C(F)(F)C(F)(F)F)C(C)C)[C@@H](C)O)C(C)C)C(C)C)[C@H](C)CC)[C@H](C)OC(=O)[C@H](C(C)C)NC1=O :: 3.02
C/C=C1\NC(=O)[C@H](Cc2ccc(O)cc2)NC(=O)[C@@H](C(C)C)NC(=O)[C@@H]([C@H](C)CC)NC(=O)[C@H](NC(=O)[C@H](NC(=O)[C@H](CCCN)NC(=O)[C@H]2CCCN2C(=O)[C@H](NC(=O)[C@@H](NC(=O)[C@@H](NC(=O)[C@H](NC(=O)CC[C@@H](C)CC)C(C)C)[C@@H](C)O)C(C)C)C(C)C)[C@H](C)CC)[C@H](C)OC(=O)[C@H](C(C)C)NC1=O :: 3.00
C/C=C1\NC(=O)[C@H](Cc2ccccc2)NC(=O)[C@@H](C(C)C)NC(=O)[C@@H]([C@H](C)CC)NC(=O)[C@H](NC(=O)[C@H](NC(=O)[C@H](CCCN)NC(=O)[C@H]2CCCN2C(=O)[C@H](NC(=O)[C@H](CCC2CCCCC2)NC(=O)[C@@H](NC(=O)[C@H](NC(=O)CCCC(C)C)C(C)C)[C@@H](C)O)C(C)C)[C@H](C)CC)[C@H](C)OC(=O)[C@H](C(C)C)NC1=O :: 2.66
C/C=C1\NC(=O)[C@@H]2Cc3ccccc3CN2C(=O)[C@@H](C(C)C)NC(=O)[C@@H]([C@H](C)CC)NC(=O)[C@H](NC(=O)[C@H](NC(=O)[C@H](CCCN)NC(=O)[C@H]2CCCN2C(=O)[C@H](NC(=O)[C@@H](NC(=O)[C@@H](NC(=O)[C@H](NC(=O)CC[C@@H](C)CC)C(C)C)[C@@H](C)O)C(C)C)C(C)C)[C@H](C)CC)[C@H](C)OC(=O)[C@H](C(C)C)NC1=O :: 2.76
C/C=C1\NC(=O)[C@H](Cc2ccccc2)NC(=O)[C@@H](C(C)C)NC(=O)[C@@H]([C@H](C)CC)NC(=O)[C@H](NC(=O)[C@H](NC(=O)[C@H](CCCN)NC(=O)[C@H]2CCCN2C(=O)[C@H](NC(=O)[C@@H](NC(=O)[C@@H](NC(=O)[C@H](NC(=O)CCCCCCCCCCCCCCC)C(C)C)[C@@H](C)O)C(C)C)C(C)C)[C@H](C)CC)[C@H](C)OC(=O)[C@H](C(C)C)NC1=O :: 1.90
C/C=C1\NC(=O)[C@H](Cc2ccccc2)NC(=O)[C@@H](C(C)C)NC(=O)[C@@H]([C@H](C)CC)NC(=O)[C@H](NC(=O)[C@H](NC(=O)[C@H](CCCN)NC(=O)[C@H]2CCCN2C(=O)[C@H](NC(=O)[C@@H](NC(=O)[C@@H](NC(=O)[C@H](NC(=O)CC[C@@H](C)[C@H]2CC[C@H]3[C@@H]4CC[C@@H]5C[C@H](OC(=O)C(F)(F)F)CC[C@]5(C)[C@H]4CC[C@]23C)C(C)C)[C@@H](C)O)C(C)C)C(C)C)[C@H](C)CC)[C@H](C)OC(=O)[C@H](C(C)C)NC1=O :: 2.67

I'm hoping you can list log10(CC50) for every compound here, please.
1. CC[C@@H](C)[C@@H](NC(=O)[C@H](CCCN)NC(=O)[C@H]1CCCN1C(=O)[C@H](NC(=O)[C@@H](NC(=O)[C@@H](NC(=O)[C@H](NC(=O)CCCC(C)C)C(C)C)[C@@H](C)O)C(C)C)C(C)C)C(=O)N[C@H]1C(=O)N[C@H]([C@H](C)CC)C(=O)N[C@H](C(C)C)C(=O)N[C@@H](Cc2ccccc2)C(=O)NC(C)(C)C(=O)N[C@@H](C(C)C)C(=O)O[C@H]1C
2. C/C=C1\NC(=O)[C@H](Cc2ccccc2)NC(=O)[C@@H](C(C)C)NC(=O)[C@@H]([C@H](C)CC)NC(=O)[C@H](N)[C@H](C)OC(=O)[C@H](C(C)C)NC1=O

Result:
1. 2.63
2. 3.36

* * *

Give measured CC50 for each item. Keep answers brief.
tested on: SK-BR-3; experiment: Cytotoxicity against human SKBR3 cells after 48 hrs by SRB assay; type: functional; settings: SK-BR-3, 48 h, read-out: LC50 (the source's name)
Record the result as number plus unit.

Here's what some known entries look like.
CC[C@@H](C)[C@@H](NC(=O)[C@H](CCCN)NC(=O)[C@H]1CCCN1C(=O)[C@H](NC(=O)[C@@H](NC(=O)[C@@H](NC(=O)[C@H](NC(=O)CCCC(C)C)C(C)C)[C@@H](C)O)C(C)C)C(C)C)C(=O)N[C@H]1C(=O)N[C@H]([C@H](C)CC)C(=O)N[C@H](C(C)C)C(=O)N[C@@H](Cc2ccccc2)C(=O)NC(C)(C)C(=O)N[C@@H](C(C)C)C(=O)O[C@H]1C :: 777 nM
C/C=C1\NC(=O)[C@H](Cc2ccccc2)NC(=O)[C@@H](C(C)C)NC(=O)[C@@H]([C@H](C)CC)NC(=O)[C@H](NC(=O)[C@H](NC(=O)[C@H](CCCN)NC(=O)[C@H]2CCCN2C(=O)[C@H](NC(=O)[C@@H](NC(=O)[C@H](C)NC(=O)[C@H](NC(=O)CCCC(C)C)C(C)C)C(C)C)C(C)C)[C@H](C)CC)[C@H](C)OC(=O)[C@H](C(C)C)NC1=O :: 371 nM
C/C=C1\NC(=O)[C@H](CCC2CCCCC2)NC(=O)[C@@H](C(C)C)NC(=O)[C@@H]([C@@H](C)CC)NC(=O)[C@H](NC(=O)[C@H](NC(=O)[C@H](CCCN)NC(=O)[C@H]2CCCN2C(=O)[C@H](NC(=O)[C@@H](NC(=O)[C@@H](NC(=O)[C@H](NC(=O)CCCC(C)C)C(C)C)[C@@H](C)O)C(C)C)C(C)C)[C@@H](C)CC)[C@@H](C)OC(=O)[C@H](C(C)C)NC1=O :: 256 nM

Pending compound:
Problem: Which CC50 reading was recorded for the compound `C/C=C1\NC(=O)[C@H](Cc2ccccc2)NC(=O)[C@@H](C(C)C)NC(=O)[C@@H]([C@H](C)CC)NC(=O)[C@H](NC(=O)[C@H](NC(=O)[C@H](CCCN)NC(=O)[C@H]2CCCN2C(=O)[C@H](NC(=O)[C@@H](NC(=O)[C@H](NC(=O)[C@H](NC(=O)CCCC(C)C)C(C)C)[C@@H](C)O)C(C)C)C(C)C)[C@H](C)CC)[C@H](C)OC(=O)[C@H](C(C)C)NC1=O` ?
Result: 1140 nM

* * *

test system: K562; test: Cytotoxicity against human K562 cells after 48 hrs by SRB assay; type: functional; conditions: K562, 48 h
RESULT TYPE: GI50

Consider the following illustrative entries.
C/C=C1\NC(=O)[C@H](Cc2ccccc2)NC(=O)[C@@H](C(C)C)NC(=O)[C@@H]([C@H](C)CC)NC(=O)[C@H](NC(=O)[C@H](NC(=O)[C@H](CCCN)NC(=O)[C@H]2CCCN2C(=O)[C@H](NC(=O)[C@@H](NC(=O)[C@@H](NC(=O)[C@H](NC(=O)CC[C@@H](C)CC)C(C)C)[C@@H](C)O)C(C)C)C(C)C)[C@H](C)CC)[C@H](C)OC(=O)[C@H](C(C)C)NC1=O :: 2070 nM
C/C=C1\NC(=O)[C@H](Cc2ccccc2)NC(=O)[C@@H](C(C)C)NC(=O)[C@@H]([C@H](C)CC)NC(=O)[C@H](NC(=O)[C@H](NC(=O)[C@H](CCCN)NC(=O)[C@H]2CCCN2C(=O)[C@H](NC(=O)[C@@H](NC(=O)[C@@H](NC(=O)[C@H](NC(=O)CC[C@H](C)CC)C(C)C)[C@@H](C)O)C(C)C)C(C)C)[C@H](C)CC)[C@H](C)OC(=O)[C@H](C(C)C)NC1=O :: 2180 nM
C/C=C1\NC(=O)[C@H](Cc2ccccc2)NC(=O)[C@@H](C(C)C)NC(=O)[C@@H]([C@H](C)CC)NC(=O)[C@H](NC(=O)[C@H](NC(=O)[C@H](CCCN)NC(=O)[C@H]2CCCN2C(=O)[C@H](NC(=O)[C@@H](NC(=O)[C@H](CCCN)NC(=O)[C@H](NC(=O)CCCC(C)C)C(C)C)C(C)C)C(C)C)[C@H](C)CC)[C@H](C)OC(=O)[C@H](C(C)C)NC1=O :: 1620 nM
C/C=C1\NC(=O)[C@H](Cc2ccccc2)NC(=O)[C@@H](C(C)C)NC(=O)[C@@H]([C@H](C)CC)NC(=O)[C@H](NC(=O)[C@H](NC(=O)[C@H](CCCN)NC(=O)[C@H]2CCCN2C(=O)[C@H](NC(=O)[C@@H](NC(=O)CNC(=O)[C@H](NC(=O)CCCC(C)C)C(C)C)C(C)C)C(C)C)[C@H](C)CC)[C@H](C)OC(=O)[C@H](C(C)C)NC1=O :: 129 nM
C/C=C1\NC(=O)[C@H](Cc2ccccc2)N(C)C(=O)[C@@H](C(C)C)NC(=O)[C@@H]([C@H](C)CC)NC(=O)[C@H](NC(=O)[C@H](NC(=O)[C@H](CCCN)NC(=O)[C@H]2CCCN2C(=O)[C@H](NC(=O)[C@@H](NC(=O)[C@@H](NC(=O)[C@H](NC(=O)CC[C@@H](C)CC)C(C)C)[C@@H](C)O)C(C)C)C(C)C)[C@H](C)CC)[C@H](C)OC(=O)[C@H](C(C)C)NC1=O :: 2140 nM
C/C=C1\NC(=O)[C@H](Cc2c[nH]c3ccccc23)NC(=O)[C@@H](C(C)C)NC(=O)[C@@H]([C@H](C)CC)NC(=O)[C@H](NC(=O)[C@H](NC(=O)[C@H](CCCN)NC(=O)[C@H]2CCCN2C(=O)[C@H](NC(=O)[C@@H](NC(=O)[C@@H](NC(=O)[C@H](NC(=O)CCCC(C)C)C(C)C)[C@@H](C)O)C(C)C)C(C)C)[C@H](C)CC)[C@H](C)OC(=O)[C@H](C(C)C)NC1=O :: 4840 nM

Hi, could you look up GI50 for each item in my list?
1. C/C=C1\NC(=O)[C@H](Cc2ccccc2)NC(=O)[C@@H](C(C)C)NC(=O)[C@@H]([C@H](C)CC)NC(=O)[C@H](NC(=O)[C@H](NC(=O)[C@H](CCCN)NC(=O)[C@H]2CCCN2C(=O)[C@H](NC(=O)[C@@H](NC(=O)[C@@H](NC(=O)CNC(=O)CCCC(C)C)[C@@H](C)O)C(C)C)C(C)C)[C@H](C)CC)[C@H](C)OC(=O)[C@H](C(C)C)NC1=O
2. C/C=C1\NC(=O)[C@H](Cc2ccccc2)NC(=O)[C@@H](C(C)C)NC(=O)[C@@H]([C@H](C)CC)NC(=O)[C@H](NC(=O)[C@H](NC(=O)[C@H](CCC(=O)O)NC(=O)[C@H]2CCCN2C(=O)[C@H](NC(=O)[C@@H](NC(=O)[C@@H](NC(=O)[C@H](NC(=O)CCCC(C)C)C(C)C)[C@@H](C)O)C(C)C)C(C)C)[C@H](C)CC)[C@H](C)OC(=O)[C@H](C(C)C)NC1=O
3. C/C=C1\NC(=O)[C@H](Cc2ccccc2)NC(=O)[C@@H](C(C)C)NC(=O)[C@@H]([C@H](C)CC)NC(=O)[C@H](NC(=O)[C@H](NC(=O)[C@H](CCCN)NC(=O)[C@H]2CCCN2C(=O)[C@H](NC(=O)[C@H](CCCN)NC(=O)[C@@H](NC(=O)[C@H](NC(=O)CCCC(C)C)C(C)C)[C@@H](C)O)C(C)C)[C@H](C)CC)[C@H](C)OC(=O)[C@H](C(C)C)NC1=O
4. C/C=C1\NC(=O)[C@H](Cc2ccccc2)NC(=O)[C@@H](C(C)C)NC(=O)[C@@H]([C@H](C)CC)NC(=O)[C@H](NC(=O)[C@H](NC(=O)[C@H](CCCN)NC(=O)[C@H]2CCCN2C(=O)[C@H](NC(=O)[C@@H](NC(=O)[C@@H](NC(=O)[C@@H](CC2CCCCC2)NC(=O)CCCC(C)C)[C@@H](C)O)C(C)C)C(C)C)[C@H](C)CC)[C@H](C)OC(=O)[C@H](C(C)C)NC1=O

Result:
["3850 nM", "3320 nM", "218 nM", "2100 nM"]
